Biological target: HIV-1 reverse transcriptase, heterodimeric p66/p51 (HIV-1), P03366
Experiment: RT polymerase inhibition assay, Ki
Measured fold reduction in potency against P1 of individual entries
Your answer is read as fold, so omit the unit and give the number.

Example entries and their recorded answers appear below.
| binder | unit | fold reduction in potency against P1 |
| --- | --- | --- |
| GTKALAEVIPLTEEAE (modifications not checked) [P7] | fold | 2 |
| GTKGLTEVIPLTEEAE (modifications not checked) [P5] | fold | 2.7 |
| GTAALTEVIPLTEEAE (modifications not checked) [P4] | fold | 2 |

# context switch: different binder, same fold reduction in potency against P1
# binder GTKALTEAIPLTEEAE (modifications not checked) [P9] ; its fold reduction in potency against P1 = 2
